assayDetails: qHTS screen for small molecules that inhibit ELG1-dependent DNA repair in human embryonic kidney (HEK293T) cells expressing luciferase-tagged ELG1; note: nearly all actives have a fitted effect of over 55% in size; note: potency is the fitted concentration of half-maximal effect
experimentalContext: HEK293T ELG1-luciferase reporter, luminescence, 16 h, DNA damage induced by 5-fluorouridine; series mostly up to 46.1 µM
The campaign covered roughly 330,000 compounds. About 7,700 (2.3%) were called active. Inconclusive results (about 26%) are left out. For the sample, actives were picked, then their nearest neighbours and some compounds at random.
readoutType: Potency

>  <compound>
CCCN(CC(=O)Nc1ccccc1C)C(=O)c1ccc2[nH]c3c(c2c1)CC(C)CC3 (configuration not stated)

>  <Potency>
9.2 µM (active)

$$$$
>  <compound>
CC(Sc1nnc(-c2ccccc2F)n1C1CC1)C(N)=O (configuration not stated)

>  <Potency>
inactive

$$$$
>  <compound>
O=C(CSc1nc2ccc(Nc3nc(N4CCOCC4)nc(N4CCOCC4)n3)cc2s1)NCc1ccco1

>  <Potency>
2.59 µM (active)

$$$$
>  <compound>
CCN(CC)S(=O)(=O)c1ccc(N(C)Cc2cccc(OC)c2OC)nc1

>  <Potency>
13 µM (active)

$$$$
>  <compound>
Cn1c(SCC(=O)Nc2nccs2)nnc1-c1cccnc1

>  <Potency>
inactive

$$$$

Take each entry in turn and give its Potency.
1. CCOC(=O)C1=CN(Cc2ccc(Br)cc2)S(=O)(=O)N(C)C1C (configuration not stated)
2. CCOC(=O)CNC(=O)CSc1ccc2nnc(-c3cccnc3)n2n1
3. Cc1ccc(Nc2nc(N)nc(CN3CCN(Cc4ccccc4)CC3)n2)cc1Cl
4. O=C(Nc1nc2ccc([N+](=O)[O-])cc2s1)c1ccc(S(=O)(=O)N2CCCc3ccccc32)cc1

["inactive", "inactive", "inactive", "2.31 µM (active)"]

Take each entry in turn and give its Potency.
1. COc1cc(OC)cc(-c2nnc(SCC(=O)Nc3ccc(C(=O)O)cc3)s2)c1
2. CC(=O)Nc1ccc(S(=O)(=O)Nc2nc(-c3ccc(C(C)(C)C)cc3)cs2)cc1
3. C/C(N)=C(/C#N)C(=O)COC(=O)c1cc(-c2ccccc2)nc2ccc(Br)cc12
4. CC1CCc2[nH]c3ccc(C(=O)N(C)CC(=O)Nc4cccc(F)c4)cc3c2C1 (configuration not stated)
5. C=CCn1c(CSc2nc3ccccc3s2)nnc1SCC(=O)NCc1ccco1
6. CCCn1c(SCC(=O)N2CCc3ccccc32)nnc1-c1ccncc1

1. inactive
2. inactive
3. inactive
4. inactive
5. inactive
6. inactive

----------
assayDetails: qHTS screen for small molecules that inhibit ELG1-dependent DNA repair in human embryonic kidney (HEK293T) cells expressing luciferase-tagged ELG1; note: nearly all actives have a fitted effect of over 55% in size
experimentalContext: HEK293T ELG1-luciferase reporter, luminescence, 16 h, DNA damage induced by 5-fluorouridine; series mostly up to 46.1 µM
About 7,700 (2.3%) of roughly 330,000 compounds were called active. Not shown: some 26% with an inconclusive outcome. Calls come from the whole dose curve; as a rule, active = well fitted inhibition curve with a large enough effect; inconclusive = small, poorly fitted or top-dose-only effect, or effect the other way; inactive = flat fitted curve, though single readings scatter. Only a selection was taken, and actives are over-represented in it overall.
Answer with one of the outcomes given here: active, inactive

Please review the entries below; each comes with its answer.
>  <compound>
COc1cc(OC)cc(-c2c(-c3cccs3)c3cc(-c4ccc(OC)cc4F)ccc3n2C)c1

>  <assignedCategory>
inactive

$$$$
>  <compound>
COc1ccc(-c2c(-c3cc(OC)cc(OC)c3)n(C)c3ccc(-c4ccn[nH]4)cc23)cc1

>  <assignedCategory>
active

$$$$
>  <compound>
Cc1onc(-c2c(F)cccc2Cl)c1C(=O)OCC(=O)N1C(C)CCCC1C (centres undefined)

>  <assignedCategory>
inactive

$$$$
>  <compound>
CCN(CC)S(=O)(=O)c1ccc(N2CCOCC2)c(NC(=O)c2ccc(=O)n(C)n2)c1

>  <assignedCategory>
inactive

$$$$
>  <compound>
COc1ccc(C(=O)OCC(=O)c2ccc(C)c(S(=O)(=O)N3CCOCC3)c2)cc1OC

>  <assignedCategory>
active

$$$$

Look up the recorded call for CC(Oc1ccc(F)cc1)C(=O)Nc1cc(S(=O)(=O)N2CCOCC2)ccc1N1CCN(C)CC1 (centres undefined) in this test.
inactive

Look up the recorded call for "Cc1ccc(C(=O)OCC(=O)NCc2cc(C)c(O)c(C)c2)cc1S(=O)(=O)N1CCCCC1" in this test.
active

Look up the recorded call for "COc1cc(OC)cc(-c2c(-c3ccc(F)cc3)c3cc(-c4ccc5cc[nH]c5c4)ccc3n2C)c1" in this test.
inactive

Look up the recorded call for Cc1ccc(C(=O)OCC(=O)N2CC(C)CC(C)C2)cc1S(=O)(=O)N1CCCCC1 (centres undefined) in this test.
inactive

----------
assayDetails: qHTS screen for small molecules that inhibit ELG1-dependent DNA repair in human embryonic kidney (HEK293T) cells expressing luciferase-tagged ELG1; note: nearly all actives have a fitted effect of over 55% in size; note: potency is the fitted concentration of half-maximal effect
experimentalContext: HEK293T ELG1-luciferase reporter, luminescence, 16 h, DNA damage induced by 5-fluorouridine; series mostly up to 46.1 µM
In all, about 330,000 compounds went through this assay and about 7,700 (2.3%) were called active. Inconclusive results (about 26%) are left out. The full list was thinned out, with actives kept by preference.
readoutType: Potency

>  <compound>
CCC/C(C)=N\Nc1nc2c(c(=O)n(C)c(=O)n2C)n1C

>  <Potency>
inactive

$$$$
>  <compound>
COc1ccc(-c2cc(C(F)(F)F)nc(S(C)(=O)=O)n2)cc1OC

>  <Potency>
20.6 µM (active)

$$$$
>  <compound>
COc1ccc(S(=O)(=O)/N=C2\C=C(NS(=O)(=O)c3ccccc3)C(=O)c3ccccc32)cc1

>  <Potency>
23.1 µM (active)

$$$$
>  <compound>
Cc1ccc(NC(=O)N2CCC(c3nc4c(nnn4Cc4c(F)cccc4Cl)c(=O)[nH]3)CC2)cc1

>  <Potency>
18.4 µM (active)

$$$$
>  <compound>
CCCN(CCC)c1nc2c(C)cccn2c(=O)c1/C=C1/SC(=S)N(Cc2ccco2)C1=O

>  <Potency>
inactive

$$$$

Take each entry in turn and give its Potency.
1. COc1cccc(NC(=O)CCc2nnc3ccc(N4CCC(C)CC4)nn23)c1
2. Cc1ccc(C)c(C(=O)COC(=O)Cn2[nH]c(=O)c3ccccc3c2=O)c1
3. COc1ccc(-c2c(C#Cc3ccsc3)c3cc(-c4ccc(CN5CCOCC5)cc4)ccc3n2C)cc1
4. N#Cc1c(-c2ccccc2)nc(SCc2ccc([N+](=O)[O-])cc2)[nH]c1=O

["inactive", "inactive", "inactive", "inactive"]

Take each entry in turn and give its Potency.
1. Cc1ccc2nc(NC(=O)C3CCN(S(=O)(=O)c4ccc5c(c4)oc(=O)n5C)CC3)sc2c1
2. O=C(Nc1cccc(C(=O)NC2CC2)c1)c1ccc(F)c(S(=O)(=O)N2CCOCC2)c1
3. Cn1c(SCC(=O)N/N=C/c2ccc(O)c(O)c2)nc2ccccc21
4. CC(C)(C)c1ccc(C(=O)N2CCN(CCNC(=O)C(=O)Nc3ccc(F)cc3)CC2)cc1
5. COc1ccc(-c2cc(C(F)(F)F)nc(SCC(=O)Nc3ccc4c(c3)OCO4)n2)cc1OC

["10.3 µM (active)", "inactive", "inactive", "inactive", "inactive"]

Take each entry in turn and give its Potency.
1. CCCCc1ccc(NS(=O)(=O)c2cccc(C(=O)N3CCCN(C)CC3)c2)cc1
2. CCN(CC)C(=O)[C@H]1CC(CC(=O)NCc2ccco2)C(=O)N2CCc3c([nH]c4ccccc34)[C@]12C (some centres undefined)
3. CN(C)C(CNC(=O)Cc1ccc([N+](=O)[O-])cc1)c1ccccc1 (centres undefined)

1. inactive
2. inactive
3. inactive

----------
assayDetails: qHTS screen for small molecules that inhibit ELG1-dependent DNA repair in human embryonic kidney (HEK293T) cells expressing luciferase-tagged ELG1; note: nearly all actives have a fitted effect of over 55% in size; note: potency is the fitted concentration of half-maximal effect
experimentalContext: HEK293T ELG1-luciferase reporter, luminescence, 16 h, DNA damage induced by 5-fluorouridine; series mostly up to 46.1 µM
Out of some 330,000 compounds screened, about 7,700 (2.3%) were called active. Roughly 26% stayed inconclusive and do not appear here. The full list was thinned out, with actives kept by preference.
readoutType: Potency

Some compounds with recorded Potency:
>  <compound>
O=S1(=O)CCC(NC(=S)SCc2ccccc2Br)C1 (stereo not drawn)

>  <Potency>
inactive

$$$$
>  <compound>
CC1CCCCC1NCC(=O)Nc1ccccc1C(=O)Nc1ccccc1 (stereo not drawn)

>  <Potency>
inactive

$$$$
>  <compound>
CCOc1ccc(NC(=O)c2cc(C)nc3ccccc23)cc1

>  <Potency>
inactive

$$$$
>  <compound>
CCC(=O)Nc1nc(C)c(C(=O)Nc2cccc(Cl)c2)s1

>  <Potency>
inactive

$$$$
>  <compound>
CN(C(=O)Cn1nnc(-c2ccc(F)cc2)n1)C1CCS(=O)(=O)C1 (stereo not drawn)

>  <Potency>
inactive

$$$$
>  <compound>
O=C(Nc1cc(Cl)cc(Cl)c1)C(NCCCO)c1ccccc1 (stereo not drawn)

>  <Potency>
inactive

$$$$

Take each entry in turn and give its Potency.
1. CCOc1ccccc1NC(=O)CCS(=O)(=O)c1cccc2nsnc12
2. CCCCCCC(=O)Nc1nc(C)c(-c2csc(Nc3cc(Cl)ccc3OC)n2)s1
3. Cc1cccc2cc(CN(Cc3nnnn3Cc3ccccc3)C3CCCC3)c(=O)[nH]c12
4. Cc1cc(NC(=O)CCN2CCN(Cc3ccccc3)CC2)ccc1Br
5. Cc1cccc(/C=N/NC(=O)CNc2cccc3ccccc23)n1
6. CC(=O)Nc1nc(C)c(-c2csc(Nc3ccc(S(N)(=O)=O)cc3)n2)s1
7. CCCCC(=O)Nc1nc(C)c(-c2csc(Nc3ccc(Cl)cc3)n2)s1
8. COc1ccc(C(=O)NC(=S)Nc2ccc(N3CCCC3)cc2)cc1OC

["inactive", "inactive", "20.6 µM (active)", "inactive", "inactive", "inactive", "20.6 µM (active)", "inactive"]

Measured values drawn from PubChem BioAssay AID504467 for this set.
